Where these numbers come from: patent US7273846B2

Target: MCH-1R (Homo sapiens, UniProt Q99705)
Sequence (Q99705 whole entry): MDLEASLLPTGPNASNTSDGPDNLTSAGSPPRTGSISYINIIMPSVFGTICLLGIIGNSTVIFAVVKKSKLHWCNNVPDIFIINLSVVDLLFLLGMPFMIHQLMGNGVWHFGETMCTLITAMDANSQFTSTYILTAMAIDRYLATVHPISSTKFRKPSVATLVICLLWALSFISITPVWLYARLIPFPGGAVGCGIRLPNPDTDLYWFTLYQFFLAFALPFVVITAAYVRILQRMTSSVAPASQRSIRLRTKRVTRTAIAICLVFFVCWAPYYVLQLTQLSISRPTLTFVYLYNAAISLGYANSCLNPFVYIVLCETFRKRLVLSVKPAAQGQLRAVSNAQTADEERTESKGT
Assay: Aequorin bioluminescence functional assay, 293AEQ17/MCH-1R cells
Format: cell-based
Design: expressed in transfected cells
Details: activity ratio
Residues, ends and D or L forms follow the SMILES beside them.
Assign class by Selectivity 2/1 (MCH-2R/MCH-1R EC50 activity ratio): not lower than 1 means TRUE; lower than 1 means FALSE.

compound	discreteLabel
CSCC[C@@H]1NC(=O)[C@@H](NC(=O)[C@@H](CCCCN)NC(C)=O)CSSC[C@@H](C(N)=O)NC(=O)[C@@H]2CCCN2C(=O)[C@H](CCCNC(=N)N)NC(=O)[C@H](Cc2ccc(O)cc2)NC(=O)[C@H](C(C)C)NC(=O)[C@H](CCCNC(=N)N)NC(=O)CNC(=O)[C@H](CC(C)C)NC1=O [SEQ. ID. NO. 13]	TRUE
CSCC[C@@H]1NC(=O)[C@@H](NC(=O)[C@H](CCCNC(=N)N)NC(C)=O)CSSC[C@@H](C(N)=O)NC(=O)[C@@H]2CCCN2C(=O)[C@H](CCCNC(=N)N)NC(=O)[C@H](Cc2ccc(O)cc2)NC(=O)[C@H](C(C)C)NC(=O)[C@H](CCCNC(=N)N)NC(=O)[C@H](C)NC(=O)[C@H](CC(C)C)NC1=O [SEQ. ID. NO. 16] (HELM PEPTIDE1{[ac].R.C.M.L.A.R.V.Y.R.P.C.[am]}$PEPTIDE1,PEPTIDE1,3:R3-12:R3$$$V2.0)	FALSE
CSCC[C@@H]1NC(=O)[C@@H](NC(=O)[C@@H](Cc2ccccc2)NC(C)=O)CSSC[C@@H](C(N)=O)NC(=O)[C@@H]2CCCN2C(=O)[C@H](CCCNC(=N)N)NC(=O)[C@H](Cc2ccc(O)cc2)NC(=O)[C@H](C(C)C)NC(=O)[C@H](CCCNC(=N)N)NC(=O)CNC(=O)[C@H](CC(C)C)NC1=O [SEQ. ID. NO. 9]	TRUE
CSCC[C@@H]1NC(=O)[C@@H](NC(=O)[C@H](CCCNC(=N)N)NC(C)=O)CSSC[C@@H](C(N)=O)NC(=O)[C@@H]2CCCN2C(=O)[C@H](CCCNC(=N)N)NC(=O)[C@H](Cc2ccc(O)cc2)NC(=O)[C@H](C(C)C)NC(=O)[C@H](CCCNC(=N)N)NC(=O)[C@H](Cc2ccccc2)NC(=O)[C@H](CC(C)C)NC1=O [SEQ. ID. NO. 20] (HELM PEPTIDE1{[ac].R.C.M.L.F.R.V.Y.R.P.C.[am]}$PEPTIDE1,PEPTIDE1,3:R3-12:R3$$$V2.0)	FALSE
CCCC[C@@H]1NC(=O)[C@@H](NC(=O)[C@@H](CCCNC(=N)N)NC(C)=O)CSSC[C@@H](C(N)=O)NC(=O)[C@@H]2CCCN2C(=O)[C@H](CCCNC(=N)N)NC(=O)[C@H](Cc2ccc(O)cc2)NC(=O)[C@H](C(C)C)NC(=O)[C@H](CCCNC(=N)N)NC(=O)[C@H](CC(N)=O)NC(=O)[C@H](CC(C)C)NC1=O [SEQ. ID. NO. 31] (HELM PEPTIDE1{[ac].[dR].C.[Nle].L.N.R.V.Y.R.P.C.[am]}$PEPTIDE1,PEPTIDE1,3:R3-12:R3$$$V2.0)	TRUE

----------
Entries and their Selectivity 2/1 (MCH-2R/MCH-1R IC50 binding ratio) values follow.
Biological target: UniProt:Q99705
Conditions: binding ratio
quantity: Selectivity 2/1 (MCH-2R/MCH-1R IC50 binding ratio)

chemicalSmiles	result
CSCC[C@@H]1NC(=O)[C@@H](NC(=O)[C@@H](C)NC(C)=O)CSSC[C@@H](C(N)=O)NC(=O)[C@@H]2CCCN2C(=O)[C@H](CCCNC(=N)N)NC(=O)[C@H](Cc2ccc(O)cc2)NC(=O)[C@H](C(C)C)NC(=O)[C@H](CCCNC(=N)N)NC(=O)CNC(=O)[C@H](CC(C)C)NC1=O	3500
CSCC[C@@H]1NC(=O)[C@@H](NC(=O)[C@H](CCCNC(=N)N)NC(C)=O)CSSC[C@@H](C(N)=O)NC(=O)[C@@H]2CCCN2C(=O)[C@H](CCCNC(=N)N)NC(=O)[C@H](Cc2ccc(O)cc2)NC(=O)[C@H](C(C)C)NC(=O)[C@H](CCCNC(=N)N)NC(=O)[C@@H]2CCCN2C(=O)[C@H](CC(C)C)NC1=O	5

----------
Target: MCH-2R (Homo sapiens, UniProt Q969V1)
Sequence (Q969V1 whole entry): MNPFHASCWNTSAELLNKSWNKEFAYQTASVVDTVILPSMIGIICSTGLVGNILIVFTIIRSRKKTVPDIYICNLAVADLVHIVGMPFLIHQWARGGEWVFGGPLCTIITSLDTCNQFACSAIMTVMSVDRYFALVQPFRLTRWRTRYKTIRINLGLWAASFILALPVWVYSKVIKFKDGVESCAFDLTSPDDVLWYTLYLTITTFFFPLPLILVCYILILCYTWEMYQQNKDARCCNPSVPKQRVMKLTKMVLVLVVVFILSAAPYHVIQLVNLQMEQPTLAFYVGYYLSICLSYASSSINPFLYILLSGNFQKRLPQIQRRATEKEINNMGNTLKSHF
Assay: Aequorin bioluminescence functional assay, 293AEQ17/MCH-2R cells
Conditions: aequorin, 293AEQ17/MCH-2R cells
quantity: EC50 (nM)

molecule	u	censoringQualifier	recordedNumber
CSCC[C@@H]1NC(=O)[C@@H](NC(=O)[C@@H](CCCNC(N)=O)NC(C)=O)CSSC[C@@H](C(N)=O)NC(=O)[C@@H]2CCCN2C(=O)[C@H](CCCNC(=N)N)NC(=O)[C@H](Cc2ccc(O)cc2)NC(=O)[C@H](C(C)C)NC(=O)[C@H](CCCNC(=N)N)NC(=O)CNC(=O)[C@H](CC(C)C)NC1=O [SEQ. ID. NO. 14]	nM	=	310
CSCC[C@@H]1NC(=O)CCSSC[C@@H](C(N)=O)NC(=O)[C@@H]2CCCN2C(=O)[C@H](CCCNC(=N)N)NC(=O)[C@H](Cc2ccc(O)cc2)NC(=O)[C@H](C(C)C)NC(=O)[C@H](CCCNC(=N)N)NC(=O)CNC(=O)[C@H](CC(C)C)NC1=O [SEQ. ID. NO. 15]	nM	>	3000

----------
Biological target: MCH-1R (Homo sapiens)
Assay: Aequorin bioluminescence functional assay, 293AEQ17/MCH-1R cells
Assay type: cell-based
Set-up: expressed in transfected cells
Conditions: human MCH = 100; activation at 10 μM concentration
Residues, ends and D or L forms follow the SMILES beside them.
Here, each record is paired with measured MCH-1R Activation % data.

compound	MCH-1R Activation % [%]
CSCC[C@@H]1NC(=O)[C@@H](NC(=O)[C@@H](CCCNC(=N)N)NC(C)=O)CSSC[C@@H](C(N)=O)NC(=O)[C@@H]2CCCN2C(=O)[C@H](C)NC(=O)[C@H](Cc2ccc(O)cc2)NC(=O)[C@H](C(C)C)NC(=O)[C@H](CCCNC(=N)N)NC(=O)[C@H](CC(N)=O)NC(=O)[C@H](CC(C)C)NC1=O [SEQ. ID. NO. 33] (HELM PEPTIDE1{[ac].[dR].C.M.L.N.R.V.Y.A.P.C.[am]}$PEPTIDE1,PEPTIDE1,3:R3-12:R3$$$V2.0)	109
CSCC[C@@H]1NC(=O)[C@@H](NC(=O)[C@@H](CCCNC(=N)N)NC(C)=O)CSSC[C@@H](C(N)=O)NC(=O)[C@@H]2CCCN2C(=O)[C@H](CCCNC(=N)N)NC(=O)[C@H](Cc2ccc(O)cc2)NC(=O)[C@H](C(C)C)NC(=O)[C@H](CCCNC(=N)N)NC(=O)[C@H](CCC(N)=O)NC(=O)[C@H](CC(C)C)NC1=O [SEQ. ID. NO. 30] (HELM PEPTIDE1{[ac].[dR].C.M.L.Q.R.V.Y.R.P.C.[am]}$PEPTIDE1,PEPTIDE1,3:R3-12:R3$$$V2.0)	74

----------
Biological target: MCH-1R (Homo sapiens)
Assay: Aequorin bioluminescence functional assay, 293AEQ17/MCH-1R cells
Type: cell-based
Parameters: expressed in transfected cells
Conditions: activity ratio
Residues, ends and D or L forms follow the SMILES beside them.
I would appreciate it if you labelled entries condition met when Selectivity 2/1 (MCH-2R/MCH-1R EC50 activity ratio) is 0.5 or higher, otherwise condition not met.

molecule	discreteLabel
CSCC[C@@H]1NC(=O)[C@@H](NC(=O)[C@H](CCCNC(=N)N)NC(C)=O)CSSC[C@@H](C(N)=O)NC(=O)[C@@H]2CCCN2C(=O)[C@H](CCCNC(=N)N)NC(=O)[C@H](Cc2ccc(O)cc2)NC(=O)[C@H](C(C)C)NC(=O)[C@H](CCCNC(=N)N)NC(=O)[C@H](CO)NC(=O)[C@H](CC(C)C)NC1=O [SEQ. ID. NO. 26] (HELM PEPTIDE1{[ac].R.C.M.L.S.R.V.Y.R.P.C.[am]}$PEPTIDE1,PEPTIDE1,3:R3-12:R3$$$V2.0)	condition met
CSCC[C@@H]1NC(=O)[C@@H](NC(=O)[C@H](CCCNC(=N)N)NC(C)=O)CSSC[C@@H](C(N)=O)NC(=O)[C@@H]2CCCN2C(=O)[C@H](CCCNC(=N)N)NC(=O)[C@H](Cc2ccc(O)cc2)NC(=O)[C@H](C(C)C)NC(=O)[C@H](CCCNC(=N)N)NC(=O)[C@H](CC2CCCCC2)NC(=O)[C@H](CC(C)C)NC1=O	condition not met
CSCC[C@@H]1NC(=O)CCSSC[C@@H](C(N)=O)NC(=O)[C@@H]2CCCN2C(=O)[C@H](CCCNC(=N)N)NC(=O)[C@H](Cc2ccc(O)cc2)NC(=O)[C@H](C(C)C)NC(=O)[C@H](CCCNC(=N)N)NC(=O)CNC(=O)[C@H](CC(C)C)NC1=O	condition met
CSCC[C@@H]1NC(=O)[C@@H](NC(=O)[C@H](CCCNC(=N)N)NC(C)=O)CSSC[C@@H](C(N)=O)NC(=O)[C@@H]2CCCN2C(=O)[C@H](CCCNC(=N)N)NC(=O)[C@H](Cc2ccc(O)cc2)NC(=O)[C@H](C(C)C)NC(=O)[C@H](CCCNC(=N)N)NC(=O)[C@H](CCCNC(N)=O)NC(=O)[C@H](CC(C)C)NC1=O	condition not met
CSCC[C@@H]1NC(=O)[C@@H](NC(=O)[C@@H](C)NC(C)=O)CSSC[C@@H](C(N)=O)NC(=O)[C@@H]2CCCN2C(=O)[C@H](CCCNC(=N)N)NC(=O)[C@H](Cc2ccc(O)cc2)NC(=O)[C@H](C(C)C)NC(=O)[C@H](CCCNC(=N)N)NC(=O)CNC(=O)[C@H](CC(C)C)NC1=O	condition met
CSCC[C@@H]1NC(=O)[C@@H](NC(=O)[C@H](CCCNC(=N)N)NC(C)=O)CSSC[C@@H](C(N)=O)NC(=O)[C@@H]2CCCN2C(=O)[C@H](CCCNC(=N)N)NC(=O)[C@H](Cc2ccc(O)cc2)NC(=O)[C@H](C(C)C)NC(=O)[C@H](CCCNC(=N)N)NC(=O)[C@H](CC(C)C)NC(=O)[C@H](CC(C)C)NC1=O	condition met
CSCC[C@@H]1NC(=O)[C@@H](NC(=O)[C@@H](CCCNC(N)=O)NC(C)=O)CSSC[C@@H](C(N)=O)NC(=O)[C@@H]2CCCN2C(=O)[C@H](CCCNC(=N)N)NC(=O)[C@H](Cc2ccc(O)cc2)NC(=O)[C@H](C(C)C)NC(=O)[C@H](CCCNC(=N)N)NC(=O)CNC(=O)[C@H](CC(C)C)NC1=O	condition not met
CSCC[C@@H]1NC(=O)[C@@H](NC(=O)[C@H](CCCNC(=N)N)NC(C)=O)CSSC[C@@H](C(N)=O)NC(=O)[C@@H]2CCCN2C(=O)[C@H](CCCNC(=N)N)NC(=O)[C@H](Cc2ccc(O)cc2)NC(=O)[C@H](C(C)C)NC(=O)[C@H](CCCNC(=N)N)NC(=O)[C@H](CC(N)=O)NC(=O)[C@H](CC(C)C)NC1=O [SEQ. ID. NO. 25] (HELM PEPTIDE1{[ac].R.C.M.L.N.R.V.Y.R.P.C.[am]}$PEPTIDE1,PEPTIDE1,3:R3-12:R3$$$V2.0)	condition met
